- procedure_details: solubility in water (product description)
- Type: physicochemical
- condition_details: qualitative

[
  {
    "mol_smiles": "CN(C)CCC1=Cc2ccccc2N(C)c2cc(Cl)ccc21",
    "solubility in water": "insoluble in water"
  },
  {
    "mol_smiles": "CN(C)CCC1=Cc2ccccc2N(C)c2ccccc21",
    "solubility in water": "insoluble in water"
  },
  {
    "mol_smiles": "CN(C)CCC1=Cc2ccccc2N(C)c2ccc(Cl)cc21",
    "solubility in water": "insoluble in water"
  }
]
